B1: UFD1L (parent)
chain: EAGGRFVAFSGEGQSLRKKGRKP

- Variants of: B1
- ASSAY_NOTES: protein stability index of a GFP-peptide fusion (GPS, HEK-293T) (PSI 1-6); higher = more stable;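 further: lentivirally expressed fusions sorted by FACS into six bins by GFP to DsRed ratio, PSI derived from sequencing read proportions per bin multiplied by bin number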
- EXPERIMENTAL_PARAMETERS: c terminus: native
# maps each entry to its protein stability index
MEASURE: protein stability index

chain=EAGGRFDAFSGEGQSLRKKGRKP observed_value=3.75
chain=EAGGRFVAFSGEGQSLRKKGIKP observed_value=3.99
chain=EAGGRFVAFSGETQSLRKKGRKP observed_value=1.23
chain=EAGGRFVAFSGEGQSLRKKGRKS observed_value=3.2
chain=EAGGRFVAFSGEGQGLRKKGRKP observed_value=2.42
chain=EAGGRFVAFSGEGQSLRKGGRKP observed_value=3.02
chain=EIGGRFVAFSGEGQSLRKKGRKP observed_value=3
chain=EAGGRFVAFSGEGQSTRKKGRKP observed_value=2.18
chain=EAGGRFVAFSGEGQSLRKKLRKP observed_value=2.04
chain=ETGGRFVAFSGEGQSLRKKGRKP observed_value=1.64
chain=EAGGRFVAFSGEGQSLRKKWRKP observed_value=1.81
chain=EAGGRFVAFSGEGQSLRKKVRKP observed_value=2.53
chain=EATGRFVAFSGEGQSLRKKGRKP observed_value=2.14
chain=EYGGRFVAFSGEGQSLRKKGRKP observed_value=2.35
chain=EAGGRFVAFSGEGQPLRKKGRKP observed_value=2.16
chain=EAGGRFNAFSGEGQSLRKKGRKP observed_value=2.18
chain=EAGGRFVAFSGEGQSLRKKGRFP observed_value=2.77
chain=EAGGRFVAFSGEGQSVRKKGRKP observed_value=2.98
chain=EAGGRFVAFSGEGNSLRKKGRKP observed_value=2.02
chain=EAGGRFVAFSGEGQSCRKKGRKP observed_value=2.79
chain=EAGGRFHAFSGEGQSLRKKGRKP observed_value=1.37
chain=EADGRFVAFSGEGQSLRKKGRKP observed_value=1.88
chain=EAGGRFVAFSGEGQSLDKKGRKP observed_value=3
chain=EAGGRFVAFSGEGQSLRKKGRIP observed_value=2.43
chain=EAGGRFVAFSGEGQSLRQKGRKP observed_value=1.87
chain=EAGGRFVAFSGEGQSPRKKGRKP observed_value=1.18
chain=EAGGRFVAFSGEVQSLRKKGRKP observed_value=2.38
chain=EAGGRFVLFSGEGQSLRKKGRKP observed_value=1.5
chain=EAGGRFVAFSGEGQSLRKKMRKP observed_value=1.57
chain=YAGGRFVAFSGEGQSLRKKGRKP observed_value=3.86
chain=EAGGRFVAFSGEGQSLRKKGTKP observed_value=4.35
chain=EAGGRFVAFSGEGQSLSKKGRKP observed_value=2.73
chain=EAGGRFVAFSGEGQSLRKKGGKP observed_value=5.2
chain=EAGGRFVAFSGEGRSLRKKGRKP observed_value=2.51
chain=EAGGRFVAFTGEGQSLRKKGRKP observed_value=1.77
chain=EAGGRFVAFKGEGQSLRKKGRKP observed_value=1.4
chain=EAGGRFVAFSGEGQSLRKKGLKP observed_value=2.88
chain=EAGGRFVAFSGEGQSLGKKGRKP observed_value=2.95
chain=EAGGRFVAFSGEGQSLRKCGRKP observed_value=2.4
chain=EAGGRFVAISGEGQSLRKKGRKP observed_value=1.19
chain=EAGGRFVAFSSEGQSLRKKGRKP observed_value=1.54
chain=EAGNRFVAFSGEGQSLRKKGRKP observed_value=1
chain=EAGGRFVAFSGEGQSLRKKGRKM observed_value=2.85
chain=EAGGRFVAFSGEGQSLRKKGRKK observed_value=4.87
chain=ERGGRFVAFSGEGQSLRKKGRKP observed_value=1.1
chain=EAGGRFVAFSGEGQDLRKKGRKP observed_value=1.87
